Test target: Dual specificity tyrosine-phosphorylation-regulated kinase 2 (Homo sapiens) (UniProt Q92630)
Sequence (whole entry): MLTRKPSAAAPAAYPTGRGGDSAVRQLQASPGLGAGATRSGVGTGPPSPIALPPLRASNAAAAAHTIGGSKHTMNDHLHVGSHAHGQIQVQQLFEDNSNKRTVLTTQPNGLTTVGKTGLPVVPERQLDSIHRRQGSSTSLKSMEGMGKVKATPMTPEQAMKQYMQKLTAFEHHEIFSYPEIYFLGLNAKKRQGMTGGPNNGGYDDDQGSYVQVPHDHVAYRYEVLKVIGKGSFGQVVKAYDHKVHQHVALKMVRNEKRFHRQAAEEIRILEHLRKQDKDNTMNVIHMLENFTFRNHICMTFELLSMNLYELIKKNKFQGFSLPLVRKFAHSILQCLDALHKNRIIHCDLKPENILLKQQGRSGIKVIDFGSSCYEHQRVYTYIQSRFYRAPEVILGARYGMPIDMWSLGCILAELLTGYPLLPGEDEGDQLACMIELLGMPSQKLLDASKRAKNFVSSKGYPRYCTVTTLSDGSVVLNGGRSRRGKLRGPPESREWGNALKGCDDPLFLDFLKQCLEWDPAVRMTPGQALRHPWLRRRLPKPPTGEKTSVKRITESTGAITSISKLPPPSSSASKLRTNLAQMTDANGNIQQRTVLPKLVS
Test conditions: at 10 µM
Here the recorded residual activity is given for each entry.
Measured metric: residual activity (%)

                                    compound    measured_metric  endpoint_result
 0  Nc1ncnc2c1c(-c1ccc(Oc3ccccc3)cc1)cn2C1CCCC1  residual activity               82
 1  CC(C)(C)n1nc(Cc2cccc3ccccc23)c2c(N)ncnc21  residual activity               99
 2  O=C(Nc1nc2ccccc2n1CCN1CCOCC1)c1cccc([N+](=O)[O-])c1  residual activity               88
 3         O=C(O)/C=C/c1cc(Br)c(Br)c(Br)c1Br  residual activity               38
 4  CN(C)S(=O)(=O)c1ccc2c(c1)/C(=C/c1cc3c([nH]1)CCCC3)C(=O)N2  residual activity               91
 5          O=c1cc(N2CCOCC2)oc2c1ccc1ccccc12  residual activity               65
 6  CC(C)c1nn(-c2c(Cl)cccc2Cl)c2nc(Cc3ccc(OCCO)cc3)[nH]c(=O)c12  residual activity              106
 7                 Cn1sc(=O)n(Cc2ccccc2)c1=O  residual activity               82
 8  O=C(CCCc1ccc(-c2ccccc2F)cc1)Nc1ccc(O)cc1  residual activity               91
 9  N#C/C(=C1/Nc2ccccc2S1)c1ccnc(NCCc2cccnc2)n1  residual activity                2
10   N#C/C(=C\c1ccc(O)c(O)c1)C(=O)NCc1ccccc1  residual activity               73
11     O=c1cc(N2CCNCC2)oc2c(-c3ccccc3)cccc12  residual activity               94
12      COc1ccc(-c2cnc3c(-c4ccsc4)cnn3c2)cc1  residual activity               94
13           CCN1/C(=C/C(C)=O)Sc2ccc(OC)cc21  residual activity               -5
14          O=C(c1ccccc1)c1ccc(N2CCOCC2)cc1O  residual activity               93
15  O=C(NC(NC(=S)Nc1ccc(F)c([N+](=O)[O-])c1)C(Cl)(Cl)Cl)C(c1ccccc1)c1ccccc1 (centres undefined)  residual activity              100
16    O=C1Cc2c([nH]c3ccc(Br)cc23)-c2ccccc2N1  residual activity               45
17           Nc1ncnc2[nH]nc(Nc3ccc(F)cc3)c12  residual activity               30
18  CSc1nc(-c2ccc(F)cc2)c(-c2ccnc(NC(C)c3ccccc3)c2)[nH]1 (centres undefined)  residual activity               86

====

Test target: Serine/threonine-protein kinase DCLK2 (Homo sapiens)
Test conditions: at 10 µM
Simple rule here: residual activity less than 90% is Y, otherwise N.

In [3]: df
Out[3]:
                                    molecule                               test_target  group_label
 0         O=C(O)/C=C/c1cc(Br)c(Br)c(Br)c1Br  Serine/threonine-protein kinase DCLK2 (Homo sapiens)            Y
 1  CSc1nc(-c2ccc(F)cc2)c(-c2ccnc(NC(C)c3ccccc3)c2)[nH]1 (centres undefined)  Serine/threonine-protein kinase DCLK2 (Homo sapiens)            N
 2  NCCNc1ncc(C(N)=O)c(Nc2cccc(C(F)(F)F)c2)n1  Serine/threonine-protein kinase DCLK2 (Homo sapiens)            Y
 3     O=c1cc(N2CCOCC2)oc2c(-c3ccccc3)cccc12  Serine/threonine-protein kinase DCLK2 (Homo sapiens)            Y
 4           Nc1ncnc2[nH]nc(Nc3ccc(F)cc3)c12  Serine/threonine-protein kinase DCLK2 (Homo sapiens)            N
 5                   Nc1ncnc2c1cnn2-c1ccccc1  Serine/threonine-protein kinase DCLK2 (Homo sapiens)            Y
 6  O=C(c1cc2cc(O)ccc2[nH]1)c1cc2cc(O)ccc2[nH]1  Serine/threonine-protein kinase DCLK2 (Homo sapiens)            Y
 7  O=C1NC(=O)C(c2cn(CCCO)c3ncccc23)=C1c1cnccn1  Serine/threonine-protein kinase DCLK2 (Homo sapiens)            Y
 8  CN(C)S(=O)(=O)c1ccc2c(c1)/C(=C/c1cc3c([nH]1)CCCC3)C(=O)N2  Serine/threonine-protein kinase DCLK2 (Homo sapiens)            Y
 9  COc1cc2c(cc1OC)-c1n[nH]c(Nc3cccc(F)c3)c1C2  Serine/threonine-protein kinase DCLK2 (Homo sapiens)            N
10  CC(C)[C@H](CO)Nc1nc(Nc2cc(N)cc(Cl)c2)c2ncn(C(C)C)c2n1  Serine/threonine-protein kinase DCLK2 (Homo sapiens)            N
11        NC(=O)Nc1sc(-c2ccc(F)cc2)cc1C(N)=O  Serine/threonine-protein kinase DCLK2 (Homo sapiens)            Y
12  O=C(NC(NC(=S)Nc1ccc(F)c([N+](=O)[O-])c1)C(Cl)(Cl)Cl)C(c1ccccc1)c1ccccc1 (centres undefined)  Serine/threonine-protein kinase DCLK2 (Homo sapiens)            Y
13          O=C(c1ccccc1)c1ccc(N2CCOCC2)cc1O  Serine/threonine-protein kinase DCLK2 (Homo sapiens)            N
14     O=c1cc(N2CCNCC2)oc2c(-c3ccccc3)cccc12  Serine/threonine-protein kinase DCLK2 (Homo sapiens)            Y
15  O=C1NC(=O)C(c2cn(CCCn3ccnc3)c3ccccc23)=C1Nc1ccccc1  Serine/threonine-protein kinase DCLK2 (Homo sapiens)            Y
16      COc1ccc(-c2cnc3c(-c4ccsc4)cnn3c2)cc1  Serine/threonine-protein kinase DCLK2 (Homo sapiens)            N
17  Cn1c2ccccc2c2c3c(c4c5ccccc5n(CCC#N)c4c21)CNC3=O  Serine/threonine-protein kinase DCLK2 (Homo sapiens)            Y
18  COc1cc2nccc(Oc3ccc(NC(=S)NC(=O)c4ccccc4C)cc3)c2cc1OC  Serine/threonine-protein kinase DCLK2 (Homo sapiens)            N

====

Test target: Serine/threonine-protein kinase Nek11 (Homo sapiens)
Test conditions: at 1 µM
Here the recorded residual activity is given for each entry.
Measured metric: residual activity

                                    molecule    measured_metric  endpoint_result
 0   O=C1Nc2ccccc2/C1=C\c1c(Cl)[nH]c2ccccc12  residual activity              64%
 1  CC(C)(C)n1nc(Cc2cccc3ccccc23)c2c(N)ncnc21  residual activity              91%
 2  Nc1ncnc2c1c(-c1ccc(Oc3ccccc3)cc1)cn2C1CCCC1  residual activity             102%
 3        CCCCc1c(-c2ccc(O)cc2)[nH]c2nccnc12  residual activity              80%
 4          O=C(c1ccccc1)c1ccc(N2CCOCC2)cc1O  residual activity              89%
 5  NCCNc1ncc(C(N)=O)c(Nc2cccc(C(F)(F)F)c2)n1  residual activity              71%
 6           Nc1ncnc2[nH]nc(Nc3ccc(F)cc3)c12  residual activity              57%
 7                   Nc1ncnc2c1cnn2-c1ccccc1  residual activity              79%
 8          O=c1cc(N2CCOCC2)oc2c1ccc1ccccc12  residual activity              98%
 9  Cn1c2ccccc2c2c3c(c4c5ccccc5n(CCC#N)c4c21)CNC3=O  residual activity              49%
10  O=S(=O)(NCCNC/C=C/c1ccc(Br)cc1)c1cccc2cnccc12  residual activity              69%
11  CCOC(=O)c1c(C)[nH]c(/C=C2\C(=O)Nc3ccccc32)c1C  residual activity              97%
